tested on: T1, purified human CD117 ectodomain (R&D Systems #332-SR) (human, UniProt P10721 26-524)
T1 construct: extracellular domain; Bought protein; also called c-kit; purified recombinant human CD117 ectodomain
T1 sequence (P10721 26-524): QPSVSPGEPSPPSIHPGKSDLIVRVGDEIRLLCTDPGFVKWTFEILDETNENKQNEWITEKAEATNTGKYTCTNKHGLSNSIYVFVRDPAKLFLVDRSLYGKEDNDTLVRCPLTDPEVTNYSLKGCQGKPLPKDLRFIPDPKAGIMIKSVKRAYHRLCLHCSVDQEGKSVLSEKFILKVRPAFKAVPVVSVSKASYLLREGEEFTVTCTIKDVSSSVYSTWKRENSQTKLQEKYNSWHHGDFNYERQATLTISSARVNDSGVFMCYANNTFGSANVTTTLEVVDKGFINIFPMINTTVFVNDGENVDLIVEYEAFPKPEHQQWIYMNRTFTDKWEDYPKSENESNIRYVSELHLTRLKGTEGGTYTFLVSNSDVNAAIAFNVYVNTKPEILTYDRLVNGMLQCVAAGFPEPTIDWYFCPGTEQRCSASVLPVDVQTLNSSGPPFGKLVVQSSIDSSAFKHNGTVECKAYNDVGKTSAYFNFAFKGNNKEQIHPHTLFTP
method notes: BLI, purified IgG on sensor, soluble ectodomain; apparent monovalent

binder	kon, M⁻¹ s⁻¹
HC-16/LC-16 (Ab16) (antibody, IgG1, V domains shown, Purified IgG; also called 016) VH: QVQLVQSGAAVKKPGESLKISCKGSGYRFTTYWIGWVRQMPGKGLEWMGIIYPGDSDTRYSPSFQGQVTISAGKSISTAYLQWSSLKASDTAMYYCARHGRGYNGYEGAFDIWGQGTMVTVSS VL: AIQLTQSPSSLSASVGDRVTITCRASQGITSALAWYQEKPGKAPNLLIYDASSLESGVPSRFSGSGYGTDFTLTISSLQPEDFATYYCQQLNSYPLTFGGGTKVDIK	324000
HC-23/LC-23 (Ab23) (antibody, IgG1, V domains shown, From rat immunization/hybridoma; purified IgG in BLI; also called 023) VH: EVQLQQYGAELGKPGTSVRLSCKVSGYNIRNTYIHWVHQRPGEGLEWIGRIDPTNGNTISAEKFKSKATLTADTSSNTAYMQFSQLKSDDTAIYFCAMNYEGYADYWGQGVMVTVSS VL: DIQMTQSPSFLSASVGDRLTINCKASQNINKYLNWYQQKLGEAPKRLIFKTNSLQTGIPSRFSGSGSGTDYTLTISSLQPEDVATYFCFQYNIGFTFGAGTKLELK	478000
